test.system: tau (Homo sapiens, UniProt P10636)
Sequence (P10636 623-695 limits assumed): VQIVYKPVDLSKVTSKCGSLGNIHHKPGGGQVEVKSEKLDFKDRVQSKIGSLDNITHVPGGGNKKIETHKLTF
test.method.notes: MCE Phenols Library screening, tau biosensor cell seeding assay (AvZ)
Assay type: cell-based
condition.context: puncta, replicate 1
quantity.measured: raw data 1

- molecule: "Oc1ccc(O)c(O)c1 [1,2,4-Trihydroxybenzene]"
  assay.result: 6931.48
- molecule: "COc1ccc(-c2cc(=O)c3c(O)cc(O[C@@H]4O[C@H](CO)[C@@H](O)[C@H](O)[C@H]4O[C@@H]4O[C@@H](C)[C@H](O)[C@@H](O)[C@H]4O)cc3o2)cc1O"
  assay.result: 40782.2
- molecule: "OC[C@H]1O[C@@H](Oc2cc3c(O)cc(O)cc3[o+]c2-c2ccc(O)c(O)c2)[C@H](O[C@@H]2OC[C@@H](O)[C@H](O)[C@H]2O)[C@@H](O)[C@@H]1O.[Cl-] [Cyanidin 3-sambubioside (chloride)]"
  assay.result: 24866.3
- molecule: "O=C(O)C(O)c1ccc(O)cc1 (stereo not drawn) [p-Hydroxymandelic acid]"
  assay.result: 35598.4
- molecule: "COc1cc([C@@H]2OC[C@@H]3[C@H]2CO[C@H]3c2cc(OC)c(O[C@@H]3O[C@H](CO)[C@@H](O)[C@H](O)[C@H]3O[C@@H]3OC[C@](O)(CO)[C@H]3O)c(OC)c2)cc(OC)c1O"
  assay.result: 28623.9
- molecule: "CC(=O)c1ccc(O)cc1C [4?-Hydroxy-2?-methylacetophenone]"
  assay.result: 32488.1

* * *

The entries below come with measured Z Repl 2 values attached.
test.system: tau (Homo sapiens)
test.method.notes: MCE Phenols Library screening, tau biosensor cell seeding assay (AvZ)
Type: cell-based
condition.context: Z score, replicate 2

- molecule: "C[C@@H]1O[C@@H](O[C@@H]2[C@@H](O)[C@H](O)[C@@H](CO)O[C@H]2c2c(O)cc(O)c3c(=O)cc(-c4ccc(O)cc4)oc23)[C@H](O)[C@H](O)[C@H]1O [Vitexin-2\"-O-rhamnoside]"
  test.system: "tau (Homo sapiens)"
  Z Repl 2: -0.753
- molecule: "Oc1cc(O)c2c(c1)O[C@H](c1cc(O)c(O)c(O)c1)[C@H](O)C2 [(-)-Epigallocatechin]"
  test.system: "tau (Homo sapiens)"
  Z Repl 2: -0.047
- molecule: "COC(=O)c1ccccc1O [Methyl Salicylate]"
  test.system: "tau (Homo sapiens)"
  Z Repl 2: -0.877
- molecule: "COc1cc(C)ccc1O [Creosol]"
  test.system: "tau (Homo sapiens)"
  Z Repl 2: 1.224

* * *

test.system: UniProt P10636
test.method.notes: MCE Phenols Library screening, tau biosensor cell seeding assay (AvZ)
Type: cell-based
condition.context: puncta, replicate 2
Note to self: class labels come from recorded raw data 2, ranges listed here: low band (below 9000), middle band (9000 to below 20000), high band (20000 or more)

- molecule: "NC(Cc1cccc(O)c1)C(=O)O (racemic)"
  group: "high band"
- molecule: "CC(C)=CCc1c(O)cc2c(c1O)C(=O)C[C@@H](c1ccc(O)cc1)O2"
  group: "middle band"
- molecule: "CC(C)=CCc1cc(C(=O)/C=C/c2ccc(O)cc2)c(O)cc1O"
  group: "middle band"
- molecule: "COc1c(O)cc(O)c2c(=O)cc(-c3ccccc3)oc12"
  group: "high band"
- molecule: "O=c1c(O)c(-c2ccccc2)oc2cc(O)cc(O)c12"
  group: "middle band"
- molecule: "O=C(O)c1cc(O)c2cccc(O)c2n1"
  group: "high band"
- molecule: "COc1ccc(-c2cc(=O)c3c(O)c(OC)c(OC)cc3o2)cc1OC"
  group: "low band"
- molecule: "COc1cc(O)c2c(=O)c(OC)c(-c3ccc(OC)c(O)c3)oc2c1"
  group: "low band"
- molecule: "O=c1ccoc2cc(O)cc(O)c12 [5,7-Dihydroxychromone]"
  group: "middle band"

* * *

test.system: tau (Homo sapiens, UniProt P10636)
test.method.notes: MCE Phenols Library screening, tau biosensor cell seeding assay (AvZ)
Type: cell-based
condition.context: puncta, replicate 2
The entries below come with measured raw data 2 values attached.
quantity.measured: raw data 2

- compound: "Oc1cccc2ccccc12 [1-Naphthol]"
  assay.result: 22669.1
- compound: "O=C(O[C@@H]1Cc2c(O)cc(O)cc2O[C@@H]1c1cc(O)c(O)c2c(=O)c(O)cc([C@H]3Oc4cc(O)cc(O)c4C[C@H]3O)cc12)c1cc(O)c(O)c(O)c1 [Theaflavin-3'-gallate]"
  assay.result: 98.608
- compound: "O=c1c(O)c(-c2ccc(O)c(O)c2)oc2cc(O)ccc12 [Fisetin]"
  assay.result: 4671.16
- compound: "COc1cc(O)c2c(=O)c(O)c(-c3ccc(O)c(O)c3)oc2c1 [Rhamnetin]"
  assay.result: 14381.1

* * *

The entries below come with measured av puncta values attached.
test.system: tau (Homo sapiens)
test.method.notes: MCE Phenols Library screening, tau biosensor cell seeding assay (AvZ)
Assay type: cell-based
condition.context: average of raw data 1 and 2

- compound: "COc1cc(O)c2c(=O)cc(-c3ccc(O)cc3)oc2c1"
  test.system: "tau (Homo sapiens)"
  av puncta: 30446.8
- compound: "Cc1cc2c(C(C)C)c(O)c(O)c(C=O)c2c(O)c1-c1c(C)cc2c(C(C)C)c(O)c(O)c(C=O)c2c1O"
  test.system: "tau (Homo sapiens)"
  av puncta: 3285.13
- compound: "COc1ccc(-c2oc3c(CC=C(C)C)c(O[C@@H]4O[C@H](CO)[C@@H](O)[C@H](O)[C@H]4O)cc(O)c3c(=O)c2O[C@@H]2O[C@@H](C)[C@H](O)[C@@H](O)[C@H]2O[C@@H]2O[C@H](CO)[C@@H](O)[C@H](O)[C@H]2O)cc1 [Epimedin A]"
  test.system: "tau (Homo sapiens)"
  av puncta: 7768.23

* * *

test.system: UniProt P10636
test.method.notes: MCE Phenols Library screening, tau biosensor cell seeding assay (AvZ)
Assay type: cell-based
condition.context: Z score, replicate 2
The entries below come with measured Z Repl 2 values attached.

- compound: "COC(=O)c1c(C)cc(OC(=O)c2c(C)cc(O)c(C=O)c2O)c(C)c1O [Atranorin]"
  Z Repl 2: -0.801
- compound: "O=c1c(-c2ccc(O)cc2)coc2cc(O[C@@H]3O[C@H](CO)[C@@H](O)[C@H](O)[C@H]3O)cc(O)c12 [Genistin]"
  Z Repl 2: 0.138
- compound: "OC[C@]1(O)COc2cc(O)ccc2-c2cc(O)c(O)cc2C1 [Protosappanin B]"
  Z Repl 2: -0.809
- compound: "Oc1cc(O)c2cc(O)c(-c3ccc(O)c(O)c3)[o+]c2c1.[Cl-] [Cyanidin (Chloride)]"
  Z Repl 2: -1.05

* * *

The entries below come with measured av puncta values attached.
test.system: tau (Homo sapiens, UniProt P10636)
test.method.notes: MCE Phenols Library screening, tau biosensor cell seeding assay (AvZ)
Format: cell-based
condition.context: average of raw data 1 and 2

- compound: "COc1cc(O)c2c(c1)O[C@H](c1ccc(O)cc1)CC2=O"
  av puncta: 19521.3
- compound: "COc1ccc2cc3[n+](cc2c1O)CCc1cc2c(cc1-3)OCO2.[Cl-] [Berberrubine (chloride)]"
  av puncta: 18734.2
- compound: "COc1cc(O)cc(OC)c1"
  av puncta: 22916.8
- compound: "CC(C)=CCc1c(O)cc2c(c1O)C(=O)C[C@@H](c1ccc(O)cc1)O2"
  av puncta: 21024
- compound: "COc1ccc(CC(=O)c2ccc(O)cc2O)cc1"
  av puncta: 20456.3
- compound: "COc1c2c3c4c(c(OC)c(=O)c5c(O)cc(OC)c(c6c(OC)cc(O)c(c1=O)c63)c54)[C@@H](C(C)=O)[C@@](C)(O)C2"
  av puncta: 3011.52
- compound: "COc1c(O)c(C)cc2c1C(=O)c1c(O)cccc1C2=O"
  av puncta: 18542
- compound: "COc1cc(CCO)ccc1O"
  av puncta: 18647.3
- compound: "O=C(O[C@@H]1Cc2c(O)cc(O)cc2O[C@@H]1c1cc(O)c(=O)c2c(O)c(O)cc([C@H]3Oc4cc(O)cc(O)c4C[C@H]3O)c2c1)c1cc(O)c(O)c(O)c1 [Theaflavin-3-gallate]"
  av puncta: 972.721
- compound: "O=C(/C=C/c1ccc(O)c2oc(-c3ccc(O)c(O)c3)cc12)O[C@H](Cc1ccc(O)c(O)c1)C(=O)O"
  av puncta: 3386.53
- compound: "O=C(/C=C/c1ccc(O)cc1)c1c(O)cc(O)cc1O"
  av puncta: 9770.58
- compound: "Oc1cc(O)c2cc(O)c(-c3ccc(O)c(O)c3)[o+]c2c1.[Cl-] [Cyanidin (Chloride)]"
  av puncta: 3213.88
- compound: "O=c1c(O)c(-c2ccc(O)c(O)c2)oc2cc(O)ccc12"
  av puncta: 7157.01
- compound: "COc1cc2c(cc1O)CC[n+]1cc3c(OC)c(OC)ccc3cc1-2.[Cl-] [Jatrorrhizine (chloride)]"
  av puncta: 22254
- compound: "Cc1cc(O)cc(O)c1"
  av puncta: 9697.38
- compound: "COc1cc(C[C@@H](CO)[C@H](CO)Cc2ccc(O)c(OC)c2)ccc1O [Secoisolariciresinol]"
  av puncta: 30068
- compound: "COc1cc(O)c(C(C)=O)c(OC)c1"
  av puncta: 26774.2
- compound: "Cc1cc(O)c2c(c1)C(=O)c1cc(O)cc(O[C@@H]3O[C@H](CO)[C@@H](O)[C@H](O)[C@H]3O)c1C2=O [Emodin-8-glucoside]"
  av puncta: 18275.8
